Origin of the recorded values: patent US10294202B2

The reader will find reported Plant response rating, Rice values listed item by item below.
# Tested on: rice
# assay name: Test B flooded paddy test
# Assay type: in vivo, Oryza sativa
# test parameters: 500 g ai/ha, Flood; scale of 0 to 100 where 0 is no effect and 100 is complete control
# Method: Plant species in the flooded paddy test selected from rice (Oryza sativa), sedge, umbrella (small-flower umbrella sedge, Cyperus difformis), ducksalad (Heteranthera limosa), and barnyardgrass (Echinochloa crus-galli) were grown to the 2-leaf stage for testing. […] Treated plants and controls were maintained in a greenhouse for 13 to 15 days, after which time all species were compared to controls and visually evaluated. […]
Lab note: record the figure alone, no unit after it.

Worked cases, Plant response rating, Rice given:
In [3]: df
Out[3]:
                                   molecule             measurement_name  result_number
0  CCc1cccc(C2CNC(=O)C2C(=O)Nc2ccc(F)c(F)c2F)c1 (racemic)  Plant response rating, Rice              0
1  O=C1NCC(c2cccc(C(F)(F)F)c2)C1C(=O)Nc1ccc(F)c(F)c1F (centres unmarked)  Plant response rating, Rice             15
2  O=C1NCC(c2cccc(OC(F)F)c2)C1C(=O)Nc1cccc(F)c1F (centres unmarked)  Plant response rating, Rice             30
3  Cc1ccc(C2CNC(=O)C2C(=O)Nc2ccccc2F)cc1 (racemic)  Plant response rating, Rice              0
4  O=C1NCC(c2ccc(OC(F)F)cc2)C1C(=O)Nc1ccccc1F (centres unmarked)  Plant response rating, Rice              0

Shift focus to the following entry.
Input line: Fill blank: measured Plant response rating, Rice of the molecule O=C1NCC(c2cccc(C3CC3)c2)C1C(=O)Nc1ccccc1F (racemic) is ____.
Output line: 0

---

The reader will find reported Plant response rating, Ryegrass, Italian values listed item by item below.
# Tested on: ryegrass, Italian
# assay name: Test A pre-/postemergence herbicide test
# Type: in vivo, Lolium multiflorum
# test parameters: Preemergence, 125 g ai/ha; 0 to 100 scale where 0 is no effect and 100 is complete control
Lab note: record the figure alone, no unit after it.

Worked cases, Plant response rating, Ryegrass, Italian given:
>>> df
                                   compound                          measurement_name  result_number
0  O=C1NCC(c2cccc(Br)c2)C1C(=O)Nc1ccc(F)cc1F (stereo not drawn)  Plant response rating, Ryegrass, Italian              0
1  O=C1NCC(c2cccc(OC(F)F)c2)C1C(=O)Nc1ccc(F)c(F)c1F (stereo not drawn)  Plant response rating, Ryegrass, Italian             30
2  CSc1cccc(C2CNC(=O)C2C(=O)Nc2ccc(F)cc2F)c1 (stereo not drawn)  Plant response rating, Ryegrass, Italian              0
3  O=C1NCC(c2cccc(C(F)(F)F)c2)C1C(=O)Nc1ccccc1Cl (stereo not drawn)  Plant response rating, Ryegrass, Italian             20
4  O=C1NCC(c2cccc(Br)c2)C1C(=O)Nc1ccccc1F (stereo not drawn)  Plant response rating, Ryegrass, Italian              0

Input line: Fill blank: measured Plant response rating, Ryegrass, Italian of the compound O=C1NCC(c2cc3ccccc3s2)C1C(=O)Nc1ccccc1F (stereo not drawn) is ____.
Output line: 0

Input line: Fill blank: measured Plant response rating, Ryegrass, Italian of the compound O=C1NCC(c2cccc(C(F)(F)F)c2)C1C(=O)Nc1cccc(Cl)c1F (stereo not drawn) is ____.
Output line: 20

Input line: Fill blank: measured Plant response rating, Ryegrass, Italian of the compound O=C1NCC(c2cc3ccccc3o2)C1C(=O)Nc1ccccc1C(F)(F)F (stereo not drawn) is ____.
Output line: 0

Input line: Fill blank: measured Plant response rating, Ryegrass, Italian of the compound CN1CC(c2ccc(F)cc2)C(C(=O)Nc2cccc(F)c2F)C1=O (stereo not drawn) is ____.
Output line: 0

---

# Tested on: foxtail, giant
# assay name: Test C pre-/postemergence herbicide test
# Format: in vivo, Setaria faberii
# test parameters: Postemergence; 250 g ai/ha; scale 0 to 100 (0 no effect, 100 complete control)
measurement name: Plant response rating, Foxtail, Giant
Lab note: record the figure alone, no unit after it.

Worked cases, Plant response rating, Foxtail, Giant given:
In [3]: df
Out[3]:
                                   molecule  result_number
0  O=C1NCC(c2cccc(C(F)(F)F)c2)C1C(=O)Nc1cccc(Cl)c1F (stereo not drawn) [Compound 316]             85
1  O=C1NCC(c2cccc(Cl)c2)C1C(=O)Nc1cccc(F)c1F (racemic) [Compound 275]             90
2  O=C1NCC(c2cccc(C(F)(F)F)c2)C1C(=O)Nc1ccccc1Cl (stereo not drawn) [Compound 312]             80
3  O=C1NCC(c2cccc(Br)c2)C1C(=O)Nc1cccc(F)c1F (stereo not drawn) [Compound 309]             80
4  O=C1NCC(c2cccc(OC(F)F)c2)C1C(=O)Nc1ccccc1F (stereo not drawn) [Compound 223]             35

Shift focus to the following entry.
Input line: Give foxtail, giant Plant response rating, Foxtail, Giant for O=C1NCC(c2cccc(C(F)(F)F)c2)C1C(=O)Nc1ccc(F)c(F)c1F (stereo not drawn) [Compound 315]
Output line: 85

---

The reader will find reported Kochia plant response rating (0 to 100 scale, 0 is no effect, 100 is complete control) values listed item by item below.
# Test system: kochia
# assay name: Test A pre-/postemergence herbicide test
# Type: in vivo, Kochia scoparia
# test parameters: Postemergence, 500 g ai/ha
# Text: […]
Lab note: record the figure alone, no unit after it.

                                   compound  result_number
0  O=C1NCC(c2cccc(C3CC3)c2)C1C(=O)Nc1ccc(F)c(F)c1F (racemic)             60
1  O=C1NCC(c2ccc(Cl)cc2)C1C(=O)Nc1ccccc1C(F)(F)F (centres unmarked)             10
2  O=C1NCC(c2ccc(OC(F)(F)C(F)F)cc2)C1C(=O)Nc1cccc(F)c1F (racemic)              0
3  Cc1ccccc1NC(=O)C1C(=O)NCC1c1cccc(OC(F)F)c1 (centres unmarked)             40

Input line: Fill blank: measured Kochia plant response rating (0 to 100 scale, 0 is no effect, 100 is complete control) of the compound O=C1NCC(c2ccc(OC(F)F)cc2)C1C(=O)Nc1ccccc1Br (centres unmarked) is ____.
Output line: 0

Input line: Fill blank: measured Kochia plant response rating (0 to 100 scale, 0 is no effect, 100 is complete control) of the compound O=C1NCC(c2cccc(C(F)F)c2)C1C(=O)Nc1cccc(F)c1F (racemic) is ____.
Output line: 60

Input line: Fill blank: measured Kochia plant response rating (0 to 100 scale, 0 is no effect, 100 is complete control) of the compound Cc1cc(C2CNC(=O)C2C(=O)Nc2ccccc2Cl)ccc1F (racemic) is ____.
Output line: 0

---

# Test system: galium
# assay name: Test C pre-/postemergence herbicide test
# Type: in vivo, Galium aparine
# test parameters: Postemergence; 250 g ai/ha; scale 0 to 100 (0 no effect, 100 complete control)
# From the text: […]
The reader will find reported Plant response rating, Galium values listed item by item below.
Lab note: record the figure alone, no unit after it.

Worked cases, Plant response rating, Galium given:
In [3]: df
Out[3]:
                                   compound  target               measurement_name  result_number
0  CN1CC(c2ccc(F)c(F)c2)C(C(=O)Nc2ccccc2F)C1=O (stereo not shown)  galium  Plant response rating, Galium             45
1  O=C1NCC(c2cccc(C(F)(F)F)c2)C1C(=O)Nc1ccc(F)cc1F (racemic)  galium  Plant response rating, Galium             50
2  O=C1NCC(c2cccc(Br)c2)C1C(=O)Nc1cccc(F)c1F (stereo not shown)  galium  Plant response rating, Galium             60

Shift focus to the following entry.
Input line: Fill blank: measured Plant response rating, Galium of the compound O=C1NCC(c2ccc(C(F)(F)F)cc2)C1C(=O)Nc1ccc(F)c(F)c1F (stereo not shown) is ____.
Output line: 80

---

The reader will find reported Pigweed plant response rating (0 to 100 scale, 0 is no effect, 100 is complete control) values listed item by item below.
# System: pigweed
# assay name: Test A pre-/postemergence herbicide test
# Type: in vivo, Amaranthus retroflexus
# test parameters: Postemergence, 500 g ai/ha
Lab note: record the figure alone, no unit after it.

                                   compound  result_number
0  O=C1NCC(c2cccc(C(F)(F)F)c2)C1C(=O)Nc1ccc(F)cc1F (racemic) [Compound 207]              0
1  O=C1NCC(c2ccc(C(F)(F)F)cc2)C1C(=O)Nc1ccccc1Cl (centres unmarked) [Compound 233]             20
2  O=C1NCC(c2cccc(C3CC3)c2)C1C(=O)Nc1cccc(F)c1F (racemic) [Compound 167]              0
3  Cc1cc(NC(=O)C2C(=O)NCC2c2cccc(C(F)(F)F)c2)ccc1F (racemic) [Compound 185]              0
4  O=C1NCC(c2cc(F)cc(F)c2)C1C(=O)Nc1cccc(F)c1F (racemic) [Compound 157]             30

Input line: Fill blank: measured Pigweed plant response rating (0 to 100 scale, 0 is no effect, 100 is complete control) of the compound Cc1ccc(C2CNC(=O)C2C(=O)Nc2ccccc2F)cc1F (racemic) [Compound 144] is ____.
Output line: 0

Input line: Fill blank: measured Pigweed plant response rating (0 to 100 scale, 0 is no effect, 100 is complete control) of the compound Cc1ccc(C2CNC(=O)C2C(=O)Nc2ccccc2Cl)cc1F (racemic) [Compound 148] is ____.
Output line: 0

Input line: Fill blank: measured Pigweed plant response rating (0 to 100 scale, 0 is no effect, 100 is complete control) of the compound O=C1NCC(c2ccc3c(c2)OC(F)(F)O3)C1C(=O)Nc1ccccc1F (racemic) [Compound 161] is ____.
Output line: 60
